Provenance of the data: ChEMBL document CHEMBL1132951

# System: UniProt P09874
# Sequence (P09874 whole entry): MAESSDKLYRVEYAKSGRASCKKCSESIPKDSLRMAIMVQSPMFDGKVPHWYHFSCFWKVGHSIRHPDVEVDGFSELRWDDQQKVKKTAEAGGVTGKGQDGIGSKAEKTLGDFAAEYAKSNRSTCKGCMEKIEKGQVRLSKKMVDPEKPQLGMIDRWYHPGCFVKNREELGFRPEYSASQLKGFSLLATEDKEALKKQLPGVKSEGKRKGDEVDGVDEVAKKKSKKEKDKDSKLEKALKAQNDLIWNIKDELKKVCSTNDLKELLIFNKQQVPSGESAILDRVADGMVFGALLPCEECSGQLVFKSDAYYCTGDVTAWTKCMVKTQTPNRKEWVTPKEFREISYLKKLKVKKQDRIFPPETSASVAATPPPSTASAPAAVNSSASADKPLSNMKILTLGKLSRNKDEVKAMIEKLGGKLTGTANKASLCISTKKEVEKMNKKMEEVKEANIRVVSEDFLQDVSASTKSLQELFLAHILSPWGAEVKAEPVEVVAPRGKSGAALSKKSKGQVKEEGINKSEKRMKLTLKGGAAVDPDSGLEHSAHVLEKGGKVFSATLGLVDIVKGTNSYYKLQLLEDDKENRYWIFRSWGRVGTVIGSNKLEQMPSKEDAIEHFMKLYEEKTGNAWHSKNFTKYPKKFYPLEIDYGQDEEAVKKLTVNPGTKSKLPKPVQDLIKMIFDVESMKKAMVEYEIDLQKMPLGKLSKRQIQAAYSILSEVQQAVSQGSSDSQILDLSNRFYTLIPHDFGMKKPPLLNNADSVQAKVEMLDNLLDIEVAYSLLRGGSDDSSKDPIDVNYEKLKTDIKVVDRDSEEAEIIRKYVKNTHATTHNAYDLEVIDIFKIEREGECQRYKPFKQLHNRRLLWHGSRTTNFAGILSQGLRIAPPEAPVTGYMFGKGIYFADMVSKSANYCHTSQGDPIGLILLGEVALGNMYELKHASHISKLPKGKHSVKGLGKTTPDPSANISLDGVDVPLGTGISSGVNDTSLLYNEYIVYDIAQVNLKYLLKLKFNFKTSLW
Kindly supply the reported pKi values for the records listed here.
Units for pKi: none; it is -log10 of a concentration expressed in mol/L.

Reading of pKi for NC(=O)c1cccc2[nH]c(-c3ccc(C(F)(F)F)cc3)nc12 with UniProt P09874: 8.92

Short answer on UniProt P09874 for NC(=O)c1cccc2nc(-c3ccc(Cl)cc3)[nH]c12 , pKi: 8.52

Log: UniProt P09874, compound CCOC(=O)c1ccc(-c2nc3c(C(N)=O)cccc3[nH]2)cc1 , pKi = 8.09

Entry NC(=O)c1cccc2[nH]c(-c3ccc(C(=O)O)cc3)nc12 under UniProt P09874 had pKi of 6.54

Tested on UniProt P09874, the item COc1cc(-c2nc3c(C(N)=O)cccc3[nH]2)ccc1O showed pKi equal to 7.89

Param item: COc1ccc(-c2nc3c(C(N)=O)cccc3n2C(=O)OCc2ccccc2)cc1 ; param system: UniProt P09874; output pKi: 6.28

Param item: Cc1nc2c(C(N)=O)cccc2[nH]1 ; param system: UniProt P09874; output pKi: 7.00

# NC(=O)c1cccc2[nH]c(-c3ccccc3F)nc12 with UniProt P09874: pKi is 8.05
